Reference for the values: PubChem BioAssay

# TEST NAME: small-molecule binders of probe aInhba, primary screen, biochemical, small-molecule microarray, 635/667 nm fluorescence (AID 1148);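 note: score merges 667nm spot fluorescence with signal-to-noise for antibody binding to printed compounds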
# RUN CONDITIONS: higher = more signal
Assign label 1 to entries whose composite z-score meets or exceeds -0.07; assign label 0 to the rest.

Below, 5 compounds whose answers are already recorded.
[[record]]
compound = "C=C(CCCC)C(=O)CC[C@H](OC(=O)c1ccccc1-c1ccccc1C(=O)O)c1cccc(OCCO)c1"
assigned_category = "label 0"

[[record]]
compound = "C=CCOC(=O)[C@H]1[C@@H]2C(=O)O[C@@H](c3ccccc3)[C@@H](c3ccccc3)N2[C@@H](c2ccc(OCCOC(=O)[C@H]3C[C@H]4C(=O)NCC(=O)N4[C@H]3c3cccc(OCCO)c3)cc2)[C@]12C(=O)Nc1ccc(I)cc12"
assigned_category = "label 1"

[[record]]
compound = "COc1ccc(C(=O)Nc2ccc(CN3C(=O)[C@@]4(O[C@@H](CC(=O)N(CCO)Cc5ccccc5)[C@H]([Si](C)(C)c5ccc(OC)cc5)[C@H]4C)c4ccccc43)cc2)cc1"
assigned_category = "label 0"

[[record]]
compound = "COC(=O)[C@@]1(Cc2ccc(OC)cc2)[C@@H]2[C@@H](CC(=O)[C@H]2CC(=O)C(=O)N(C)C)CN1C(=O)c1ccccc1"
assigned_category = "label 1"

[[record]]
compound = "COc1ccc([Si](C)(C)[C@@H]2[C@@H](CC(=O)N3CCC[C@H]3CO)O[C@]3(C(=O)N(Cc4cccc(N5C(=O)c6cccc7cccc5c67)c4)c4ccccc43)[C@H]2C)cc1"
assigned_category = "label 0"


Query :: Does the compound C=C(CC1([C@@H](NP(=O)(c2ccccc2)c2ccccc2)[C@H]2C[C@@H]2CCCC)CC1)c1cccc(OC)c1 have recorded composite z-score that is -0.07 or more?
Result :: label 1

Query :: Is it the case that C=CCOC(=O)[C@@H]1[C@H]2C(=O)O[C@H](c3ccccc3)[C@H](c3ccccc3)N2[C@H](c2ccc(OCCOC(=O)[C@H]3C[C@H]4C(=O)N[C@@H](CCCCN(C)C)C(=O)N4[C@H]3c3cccc(OCCO)c3)cc2)[C@@]12C(=O)Nc1ccccc12 has composite z-score reaching or exceeding -0.07?
Result :: label 0

Query :: Is it the case that CC(CO)N1C(=O)[C@@H]2[C@H]3C(=O)OCC=C[C@H]3OC23C=CCN(c2ccc4ccccc4c2)C(=O)[C@@H]13 (some centres not stated) has composite z-score reaching or exceeding -0.07?
Result :: label 0

Query :: Kindly determine if composite z-score recorded for CN1C(=O)C2C=CC(C(O)c3ccc(I)cc3)N(N(c3ccccc3)c3ccccc3)C2C1=O (configuration not stated) is above or exactly -0.07.
Result :: label 1

Query :: Has O=C1NC(=O)C2C1C=CC(C(O)C(c1ccccc1)c1ccccc1)N2Nc1ccccn1 (configuration not stated) a recorded composite z-score greater than or equal to -0.07?
Result :: label 1

Query :: Threshold query (composite z-score >= -0.07) on C[C@H]1C2[C@H](Cc3ccccc3)NC(=O)[C@]23C(=O)N[C@@H](Cc2ccccc2)C(=O)N2CCC[C@H]2C(=O)NC/C=C/CC/C=C/C3[C@@H]2O[C@]12C (some centres not stated)
Result :: label 0

Query :: composite z-score >= -0.07 for CC(C)(C)OC(=O)CC[C@@]1(C(=O)N2CCOCC2)N=C(c2ccc(OCCCO)cc2)O[C@@H]1c1ccccc1CN=[N+]=[N-] ?
Result :: label 1

Query :: Dear colleague, could you confirm whether C=C(COC)/C(=C/C[C@@H](OC(=O)c1ccncc1)c1ccccc1OCCO)c1cnc2ccccc2c1 has composite z-score at or above -0.07?
Result :: label 1

Query :: # check: composite z-score of COC(=O)C1(CC(C)C)C=C2C(=C(C)C(=O)C2C)CN1 (configuration not stated) is greater than or equal to -0.07
Result :: label 1

Query :: Assess whether reported composite z-score for CC(=O)NCCCC[C@@H]1NC(=O)[C@H]2C[C@@H](C(=O)O)[C@@H](c3cccc(OCCO)c3)N2C1=O sits at -0.07 or higher.
Result :: label 0

Query :: Does the reported composite z-score for CCOC(=O)C[C@H]1[C@H](OC(=O)c2ccccc2-c2ccccc2)[C@@H](NC(=O)CC(C)C)c2cc(OCCCO)ccc2N1C(=O)c1ccccc1 fall at or above the -0.07 mark?
Result :: label 1

Query :: Hello, I need to know if CC(C)C[C@@H]1NC(=O)[C@@H]2C[C@H](C(=O)NCCCCCNC(=O)CS)[C@H](c3ccc(O)cc3)N2C1=O has measured composite z-score not below -0.07. Thanks!
Result :: label 1

Query :: Confirm if composite z-score reported for the compound CC(C)c1ccc(NN2C(C(O)c3ccccc3)C=CC3C(=O)N(c4ccccc4)C(=O)C32)cc1 (configuration not stated) is -0.07 or above.
Result :: label 1
